Readings of pEC50 for the listed compounds
tested on: Leishmania donovani; experiment: Antileishmanial activity against luciferase expressing Leishmania donovani intracellular amastigotes infected in human THP1 cells assessed as inhibition of parasite growth after 48 hrs by Bright-glo luciferase assay; type: functional, organism-based; conditions: THP-1, 48 h
pEC50: −log10 of the molar value.
Assay metric: pEC50

# Compound, Observed value
measured = [
    ("C[C@@H]1[C@H](O)[C@@H](C)/C=C/C=C/C=C/C=C/C=C/C=C/C=C/[C@H](O[C@@H]2O[C@H](C)[C@@H](O)[C@H](N)[C@@H]2O)C[C@@H]2O[C@](O)(C[C@@H](O)C[C@@H](O)[C@H](O)CC[C@@H](O)C[C@@H](O)CC(=O)O[C@H]1C)C[C@H](O)[C@H]2C(=O)O [AMPHOTERICIN B]", 6.96),
    ("N=C(NOC(=O)Nc1cccc(Cl)c1)c1ccc2nonc2c1", 5.23),
]

---

Readings of selectivity ratio for the listed molecules
experiment: Selectivity index, ratio of EC50 for human THP1 cells to EC50 for Leishmania donovani axenic amastigotes; format: toxicity, cell-based, THP-1; settings: THP1 cells versus Leishmania donovani axenic amastigotes, read-out: Ratio EC50
Assay metric: selectivity ratio

# Record smiles, Observed value
rows = [
    ("O=C(Nc1ccccc1)ONC(=O)c1ccc2nonc2c1", 4.2),
    ("N=C(NOC(=O)Nc1cccc(Cl)c1)c1ccc2nonc2c1", 19),
]
